Hi there, I'd appreciate the recorded IC50 for every entry that follows.
# experimentalSystem: SUMO-activating enzyme (Homo sapiens, UniProt Q9UBT2)
# Sequence (Q9UBE0 whole entry): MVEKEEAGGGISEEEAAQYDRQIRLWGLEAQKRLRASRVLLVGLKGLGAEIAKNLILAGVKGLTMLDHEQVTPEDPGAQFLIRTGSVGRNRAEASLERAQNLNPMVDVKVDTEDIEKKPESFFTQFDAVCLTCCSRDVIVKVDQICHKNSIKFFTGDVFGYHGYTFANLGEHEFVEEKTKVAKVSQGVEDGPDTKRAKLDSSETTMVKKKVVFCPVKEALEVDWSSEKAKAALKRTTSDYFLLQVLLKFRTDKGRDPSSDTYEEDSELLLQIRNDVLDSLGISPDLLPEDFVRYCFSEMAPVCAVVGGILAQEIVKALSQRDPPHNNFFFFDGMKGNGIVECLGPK
# Sequence (Q9UBT2 whole entry): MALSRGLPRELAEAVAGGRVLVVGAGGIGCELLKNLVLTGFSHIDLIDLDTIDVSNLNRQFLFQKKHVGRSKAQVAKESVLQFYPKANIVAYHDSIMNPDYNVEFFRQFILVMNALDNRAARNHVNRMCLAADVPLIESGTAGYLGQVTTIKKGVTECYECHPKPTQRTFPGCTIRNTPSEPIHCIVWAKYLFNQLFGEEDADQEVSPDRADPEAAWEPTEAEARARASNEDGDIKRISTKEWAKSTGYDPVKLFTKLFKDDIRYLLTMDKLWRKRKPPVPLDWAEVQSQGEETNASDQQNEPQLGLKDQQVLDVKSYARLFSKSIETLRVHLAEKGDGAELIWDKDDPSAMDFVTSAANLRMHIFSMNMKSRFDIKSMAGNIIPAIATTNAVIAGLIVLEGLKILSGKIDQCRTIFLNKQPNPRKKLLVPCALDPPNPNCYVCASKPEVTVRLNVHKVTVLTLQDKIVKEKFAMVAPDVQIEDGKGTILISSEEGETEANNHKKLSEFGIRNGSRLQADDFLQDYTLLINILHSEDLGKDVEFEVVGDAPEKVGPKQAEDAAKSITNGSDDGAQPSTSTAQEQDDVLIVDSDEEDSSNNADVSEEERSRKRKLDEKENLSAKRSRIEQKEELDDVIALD
# methodNotes: SUMOylation inhibitor hit validation, confirmation, SUMOylation inhibitor project, biochemical, AlphaScreen (AID 2018)
# Type: functional
Active and inactive are the calls of the source. Rule as the data show it: actives have a measured IC50 and inactives only a lower limit.

Reference set (4 entries):
>  <compound>
N=c1c(S(=O)(=O)c2ccc(Br)cc2)cc2c(=O)n3ccccc3nc2n1Cc1ccco1

>  <IC50>
3.92 µM (active)

$$$$
>  <compound>
Cc1cc(OC(C(=O)O)c2ccccc2)c2c(C)c(Cc3ccccc3)c(=O)oc2c1 (stereo not given)

>  <IC50>
41.3 µM (active)

$$$$
>  <compound>
O=C(O)c1cccc(Cn2c(Cl)c(/C=N/NC(=O)c3cc4ccccc4cc3O)sc2=O)c1

>  <IC50>
1.86 µM (active)

$$$$
>  <compound>
Cc1cc(C)n(Cc2ccc(C(=O)N/N=C/c3ccc(-c4ccc([N+](=O)[O-])cc4)o3)o2)n1

>  <IC50>
5.62 µM (active)

$$$$

Now for a further compound.
Recorded IC50 of `CCOc1ccc(NC(=O)c2ccc(NC(=O)c3ccc(CN4CCOCC4)cc3)cc2)cc1` , please.
22.4 µM (active)
